Test system: OVCAR-3
Test details: Concentration which reduced cell growth to 50 % of level against OVCAR-3 ovarian cancer line
Assay type: functional
Stated conditions: Homo sapiens
Recorded GI50 determines the label; the label ranges are category 1: < 3 µM; category 2: ≥ 3 µM and < 30 µM; category 3: ≥ 30 µM

Q: // bin(item) where item = "COc1ccccc1-c1cc(O)c2cccnc2n1"
A: category 3

Q: // bin(item) where item = "COc1cccc(-c2cc(O)c3c(C)cc(C)nc3n2)c1"
A: category 1

Q: // bin(item) where item = "Cc1cc(C)c2c(O)cc(-c3ccc(F)cc3)nc2n1"
A: category 3

Q: // bin(item) where item = "COc1ccccc1-c1cc(O)c2cc(C)cnc2n1"
A: category 2

Q: // bin(item) where item = "Oc1cc(-c2ccc(F)cc2)nc2ncccc12"
A: category 3

Q: // bin(item) where item = "Cc1cc(C)c2c(O)cc(-c3ccc(Cl)cc3)nc2n1"
A: category 2

Q: // bin(item) where item = "COc1cccc(-c2cc(=O)c3ccc(C)nc3[nH]2)c1"
A: category 1

Q: // bin(item) where item = "Oc1cc(-c2ccc(F)cc2)nc2ncc(Cl)cc12"
A: category 2

Q: // bin(item) where item = "Cc1ccnc2nc(-c3ccc(F)cc3)cc(O)c12"
A: category 3

Q: // bin(item) where item = "Cc1ccnc2nc(-c3ccc(Cl)cc3)cc(O)c12"
A: category 2

Q: // bin(item) where item = "Cc1ccc2c(O)cc(-c3ccc(Cl)cc3)nc2n1"
A: category 1

Q: // bin(item) where item = "COc1ccccc1-c1cc(O)c2ccc(C)nc2n1"
A: category 3
